# test.target: D(2) dopamine receptor (Homo sapiens) (UniProt P14416)
# Sequence (P14416 whole entry, looked up): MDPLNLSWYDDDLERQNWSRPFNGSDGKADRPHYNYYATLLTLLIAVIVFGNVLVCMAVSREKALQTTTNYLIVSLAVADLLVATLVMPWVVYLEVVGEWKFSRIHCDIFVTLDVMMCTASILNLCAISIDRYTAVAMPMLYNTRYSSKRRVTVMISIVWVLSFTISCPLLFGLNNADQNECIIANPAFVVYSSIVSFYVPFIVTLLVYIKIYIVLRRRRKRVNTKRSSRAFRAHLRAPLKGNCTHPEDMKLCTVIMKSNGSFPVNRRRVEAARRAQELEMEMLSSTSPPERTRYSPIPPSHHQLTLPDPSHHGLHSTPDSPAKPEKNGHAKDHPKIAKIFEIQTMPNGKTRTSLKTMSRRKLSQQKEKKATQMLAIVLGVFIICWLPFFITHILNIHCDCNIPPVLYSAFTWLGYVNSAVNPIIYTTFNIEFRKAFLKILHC
# assay.summary: Dopamine D2 receptor (DRD2) small molecule antagonists, cell-based qHTS assay (AID 1963595)
# reported.conditions: HEK293-DRD2 cAMP HTRF antagonist mode; series mostly up to 92.4 µM
Results filed as inconclusive are left out. The source made the active and inactive calls. The call rests on the fitted dose curve; in most records, active means well fitted inhibition curve with a large enough effect in the signal ratio in the repeat runs, with a control signal flat; inconclusive means weak or mixed curves, or effect the other way; inactive means flat fitted curve, though single readings scatter; the % refers to the signal ratio.
Your answer must be one of the following: active, inactive

compound	discrete.label
CCNc1nc(NC(C)C(C)C)nc(SC)n1 (stereo not given)	inactive
CNN	inactive
O.O.O.O.O.O.O=S(=O)([O-])[O-].[Ni+2]	inactive
Oc1ccc2ccc3cccc4ccc1c2c34	inactive
COP(=S)(OC)Oc1ccc(S(N)(=O)=O)cc1	inactive

Name the outcome recorded for O=C(O)c1cc(I)cc(I)c1I in the assay.
inactive

Hey, just so you know, these numbers are from PubChem BioAssay (Tox21).
